All values here come from the Human Domainome abundance scans (Beltran et al. 2025).

B1: Intersectin-1, residues 1156 to 1213; numbered along this chain, Q15811 (parent)
chain: AVCQVIGMYDYTAQNDDELAFNKGQIINVLNKEDPDWWKGEVNGQVGLFPSNYVKLTT

Variants of: B1
Assay: abundance fitness (aPCA) (normalised: wild type 0, dead -1); higher = more abundant; growth selection in yeast, the domain comes from the species named
Conditions: Homo sapiens
Listing of recorded abundance fitness by entry.
Give the value as a plain number.

Before answering, review these 10 worked examples.
INSERT INTO results (variant_notation, parameter, readout_value) VALUES
  ('Q14W', 'abundance fitness', -0.723),
  ('L30M', 'abundance fitness', -0.412),
  ('D16Q', 'abundance fitness', 0.115),
  ('G47R', 'abundance fitness', -0.786),
  ('K23L', 'abundance fitness', -0.77),
  ('N28Q', 'abundance fitness', -0.399),
  ('V2K', 'abundance fitness', -0.06),
  ('D16Y', 'abundance fitness', -0.588),
  ('D36K', 'abundance fitness', 0.071),
  ('I27L', 'abundance fitness', -0.373);

Would you mind telling me what abundance fitness value was observed for "I6T" ?
-0.388

Try the variant "W37L"
-0.339

Try the variant "W37F"
-0.307

Try the variant "T57E"
-0.519

Try the variant "Y53A"
0.043

Try the variant "G24D"
-0.579

Try the variant "A20G"
0.1

Try the variant "V46M"
-0.396

Try the variant "A1R"
-0.1

Try the variant "Y11P"
-0.759

Try the variant "C3Y"
-0.184

Try the variant "A20L"
-0.796
